Quick record: pIC50, UniProt:Q13627.
Note: pIC50 values are expressed as the negative base-10 logarithm of concentration in M.

Provide value of pIC50 for this record tested with UniProt:Q13627: `CCS(=O)(=O)c1ccc(OC)c(Nc2ncc(/C=C/c3ccccc3)o2)c1`
5.15

Could you do the same for `CCS(=O)(=O)c1ccc(OC)c(Nc2ncc(-c3cc4ccccc4s3)o2)c1` , please?
6.30

---
Provide value of pIC50 for this record tested with UniProt:Q13627: `CCS(=O)(=O)c1ccc(OC)c(Nc2ncc(-c3ccc4cc(OC)ccc4c3)o2)c1`
6.00

----------
# target_or_system: Vascular endothelial growth factor receptor 2 (Homo sapiens, UniProt P35968)
# Sequence (P35968 whole entry): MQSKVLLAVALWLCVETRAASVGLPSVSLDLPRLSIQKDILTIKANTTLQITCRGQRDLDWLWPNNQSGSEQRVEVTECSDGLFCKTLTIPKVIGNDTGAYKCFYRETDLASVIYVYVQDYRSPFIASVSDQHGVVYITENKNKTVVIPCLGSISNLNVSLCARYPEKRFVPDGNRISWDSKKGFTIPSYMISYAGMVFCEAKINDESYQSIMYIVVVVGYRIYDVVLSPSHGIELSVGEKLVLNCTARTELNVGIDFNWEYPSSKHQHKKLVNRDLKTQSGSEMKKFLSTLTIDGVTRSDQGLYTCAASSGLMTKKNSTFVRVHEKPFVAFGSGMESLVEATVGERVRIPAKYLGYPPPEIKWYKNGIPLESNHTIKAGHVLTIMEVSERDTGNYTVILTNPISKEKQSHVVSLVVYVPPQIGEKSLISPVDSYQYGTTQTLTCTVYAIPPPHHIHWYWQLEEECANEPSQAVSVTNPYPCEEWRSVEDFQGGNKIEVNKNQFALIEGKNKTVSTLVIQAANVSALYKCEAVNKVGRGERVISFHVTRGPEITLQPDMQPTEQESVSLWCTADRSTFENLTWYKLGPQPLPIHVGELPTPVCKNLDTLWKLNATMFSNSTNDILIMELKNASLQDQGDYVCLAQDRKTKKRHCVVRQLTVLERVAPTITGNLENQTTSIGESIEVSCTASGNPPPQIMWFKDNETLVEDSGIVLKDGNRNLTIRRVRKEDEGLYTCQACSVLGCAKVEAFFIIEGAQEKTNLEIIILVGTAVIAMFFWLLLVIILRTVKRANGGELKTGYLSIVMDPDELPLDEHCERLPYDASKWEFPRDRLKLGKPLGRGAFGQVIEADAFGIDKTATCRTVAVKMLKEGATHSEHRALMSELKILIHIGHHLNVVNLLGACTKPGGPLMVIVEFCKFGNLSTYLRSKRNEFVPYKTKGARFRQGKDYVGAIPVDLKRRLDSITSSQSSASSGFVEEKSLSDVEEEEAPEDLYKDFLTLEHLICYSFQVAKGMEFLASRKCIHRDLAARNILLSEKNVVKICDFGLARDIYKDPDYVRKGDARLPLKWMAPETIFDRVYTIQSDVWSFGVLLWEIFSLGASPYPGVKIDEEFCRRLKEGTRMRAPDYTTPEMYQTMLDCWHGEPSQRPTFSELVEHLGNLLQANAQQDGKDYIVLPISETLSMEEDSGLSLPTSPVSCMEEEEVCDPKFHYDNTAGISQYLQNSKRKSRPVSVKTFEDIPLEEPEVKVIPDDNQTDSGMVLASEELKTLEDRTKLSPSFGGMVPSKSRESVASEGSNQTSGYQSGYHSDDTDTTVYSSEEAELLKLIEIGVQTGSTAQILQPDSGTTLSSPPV
measured_metric: pIC50
Note: pIC50 values are expressed as the negative base-10 logarithm of concentration in M.

Reported pIC50 for `CCS(=O)(=O)c1ccc(OC)c(Nc2ncc(-c3ccc(CC#N)c(-c4ccccn4)c3)o2)c1` : what is it?
7.64

----------
# target_or_system: Dual specificity protein kinase CLK1 (Homo sapiens, UniProt P49759)
# Sequence (P49759 whole entry, the tested form may be a part): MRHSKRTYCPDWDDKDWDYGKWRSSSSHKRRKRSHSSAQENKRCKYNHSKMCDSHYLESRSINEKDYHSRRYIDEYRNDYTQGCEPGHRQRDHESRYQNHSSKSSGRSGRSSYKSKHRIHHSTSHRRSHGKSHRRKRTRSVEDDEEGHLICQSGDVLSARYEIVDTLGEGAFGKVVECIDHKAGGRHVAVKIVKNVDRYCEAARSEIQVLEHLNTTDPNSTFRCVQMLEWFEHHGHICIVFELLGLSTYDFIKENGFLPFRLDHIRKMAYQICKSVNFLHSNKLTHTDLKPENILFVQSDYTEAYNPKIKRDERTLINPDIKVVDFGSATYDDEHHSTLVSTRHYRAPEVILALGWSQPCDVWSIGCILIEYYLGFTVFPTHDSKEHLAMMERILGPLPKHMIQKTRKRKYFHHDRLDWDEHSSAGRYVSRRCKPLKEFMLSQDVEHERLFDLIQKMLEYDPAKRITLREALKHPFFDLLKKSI
# measurement_description: Inhibition of human CLK1 using substrate after 30 mins in presence of [gamma-33P]ATP by liquid scintillation counting
Reported pIC50 values are given for each entry in this list.
Note: pIC50 values are expressed as the negative base-10 logarithm of concentration in M.

Reported pIC50 for `CCS(=O)(=O)c1ccc(OC)c(Nc2ncc(/C=C/c3ccccc3)o2)c1` : what is it?
7.40

Could you do the same for `CCS(=O)(=O)c1ccc(OC)c(Nc2ncc(-c3ccc(CC#N)c(-c4ccccn4)c3)o2)c1` , please?
7.10

Could you do the same for `CCS(=O)(=O)c1ccc(OC)c(Nc2ncc(-c3ccc4cc(OC)ccc4c3)o2)c1` , please?
7.70

Attention now shifts to the item below.
Reported pIC50 for `CCS(=O)(=O)c1ccc(OC)c(Nc2ncc(-c3cc4ccccc4s3)o2)c1` : what is it?
7.52

----------
# measurement_description: Inhibition of Leishmania major strain Friedlin N-terminal His6-tagged GSK3 expressed in Escherichia coli BL21(DE3) using Biotin-labeled GSP-2 peptide substrate after 90 mins in presence of [gamma33-P]ATP by scintillation proximity assay
measured_metric: IC50 (nM)
Response body: numeric value in nM, unit text excluded.

Reported IC50 for `Nc1nc(Nc2ccc(S(N)(=O)=O)cc2)nn1C(=S)Nc1c(F)cccc1F` : what is it?
320

----------
# target_or_system: Dual specificity protein kinase CLK1 (Homo sapiens, UniProt P49759)
# measurement_description: Inhibition of human CLK1 (148 to 484 residues) expressed in Escherichia coli BL21(DE3) preincubated for 10 mins followed by AFRREWSPGKEAKK substrate addition by pyruvate kinase and lactate dehydrogenase coupled enzyme assay
measured_metric: IC50 (nM)
Response body: numeric value in nM, unit text excluded.

Reported IC50 for `Nc1nc(Nc2ccc(S(N)(=O)=O)cc2)nn1C(=S)Nc1c(F)cccc1F` : what is it?
8.9

----------
# target_or_system: CDK9/cyclin T1 (Homo sapiens, UniProt P50750)
# Sequence (O60563 whole entry): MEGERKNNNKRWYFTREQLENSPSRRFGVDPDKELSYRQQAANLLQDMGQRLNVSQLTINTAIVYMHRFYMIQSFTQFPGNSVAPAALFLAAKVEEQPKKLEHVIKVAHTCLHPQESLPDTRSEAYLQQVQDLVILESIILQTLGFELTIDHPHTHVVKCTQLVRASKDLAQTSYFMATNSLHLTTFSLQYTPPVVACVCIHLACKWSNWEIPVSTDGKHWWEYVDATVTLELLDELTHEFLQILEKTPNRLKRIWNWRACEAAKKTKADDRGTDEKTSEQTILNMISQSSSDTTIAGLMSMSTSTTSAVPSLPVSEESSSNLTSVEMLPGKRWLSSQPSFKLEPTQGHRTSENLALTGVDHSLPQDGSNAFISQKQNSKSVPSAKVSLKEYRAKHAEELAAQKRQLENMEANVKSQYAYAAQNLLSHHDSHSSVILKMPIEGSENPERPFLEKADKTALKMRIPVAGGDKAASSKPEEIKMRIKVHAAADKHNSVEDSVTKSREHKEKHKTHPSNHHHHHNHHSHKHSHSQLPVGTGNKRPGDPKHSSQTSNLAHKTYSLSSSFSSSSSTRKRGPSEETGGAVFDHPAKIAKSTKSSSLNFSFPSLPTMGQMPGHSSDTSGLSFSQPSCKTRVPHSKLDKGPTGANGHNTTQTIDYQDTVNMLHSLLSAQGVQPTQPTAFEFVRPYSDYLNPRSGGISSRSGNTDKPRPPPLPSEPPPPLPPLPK
# Sequence (P50750 whole entry): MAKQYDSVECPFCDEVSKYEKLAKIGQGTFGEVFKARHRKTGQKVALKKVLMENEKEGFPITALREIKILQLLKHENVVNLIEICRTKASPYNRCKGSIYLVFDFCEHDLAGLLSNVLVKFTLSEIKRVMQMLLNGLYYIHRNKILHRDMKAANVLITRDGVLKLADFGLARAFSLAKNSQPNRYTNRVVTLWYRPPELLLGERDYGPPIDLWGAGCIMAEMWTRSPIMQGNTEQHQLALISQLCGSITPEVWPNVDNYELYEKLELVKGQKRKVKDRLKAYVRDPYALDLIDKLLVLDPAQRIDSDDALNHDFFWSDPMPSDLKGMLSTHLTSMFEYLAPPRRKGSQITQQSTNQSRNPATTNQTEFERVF
# measurement_description: Inhibition of CDK9/CyclinT (unknown origin) using substrate after 30 mins in presence of [gamma-33P]ATP by liquid scintillation counting
measured_metric: pIC50
Note: pIC50 values are expressed as the negative base-10 logarithm of concentration in M.

Reported pIC50 for `CCS(=O)(=O)c1ccc(OC)c(Nc2ncc(/C=C/c3ccccc3)o2)c1` : what is it?
6.70
